Where a name gives a salt, the structure may show the parent alone.
quantity: melting point

Previously resolved entries follow.
compound="Cc1ccccc1-c1cc(Cl)cc2c1OC(CN)O2 (centres unmarked) (as salt: hydrochloride) [Compound I-91]" endpoint_result="> 250 °C"
compound="CCNCC1COc2cccc(-c3ccc(Cl)cc3Cl)c2O1 (centres unmarked) (as salt: fumarate) [Compound I-33]" endpoint_result="179 to 180 °C"

Req: Which melting point is listed for CNCC1COc2cccc(-c3ccc(F)cc3F)c2O1 (centres unmarked) (as salt: fumarate) [Compound I-28] ?
Resp: 174 to 175 °C

Req: Which melting point is listed for COc1ccccc1-c1cc(Cl)cc2c1OC(CN)O2 (centres unmarked) (as salt: hydrochloride) [Compound I-92] ?
Resp: 245 to 246 °C

Req: Which melting point is listed for NC[C@H]1COc2cccc(-c3ccccc3C(F)(F)F)c2O1 (as salt: fumarate) [Compound I-57] ?
Resp: 205 to 206 °C

Req: Which melting point is listed for NCC1Oc2cc(F)cc(-c3ccccc3)c2O1 (centres unmarked) (as salt: hydrochloride) [Compound I-77] ?
Resp: 227 to 229 °C

Req: Which melting point is listed for NC[C@H]1Oc2cc(F)cc(-c3c(Cl)cccc3Cl)c2O1 (as salt: hydrochloride) [Compound I-85] ?
Resp: 224 to 225 °C

Req: Which melting point is listed for CNCC1COc2cccc(-c3cccc(OC)c3OC)c2O1 (centres unmarked) (as salt: fumarate) [Compound I-30] ?
Resp: 159 to 160 °C

* * *

Here, each record is paired with measured Emax data.
Target: human 5-HT2C receptor (Homo sapiens, UniProt P28335)
Assay: 5-HT2C receptor-stimulated calcium mobilization (FLIPR) in CHO cells
Type: cell-based
Conditions: CHO; read-out: 5-HT2C Function EMax (%)
Report as a plain number; the unit % is understood.

compound="NC[C@H]1COc2ccc(Cl)c(-c3ccccc3Cl)c2O1 [Compound I-70]" endpoint_result=50
compound="NC[C@@H]1Oc2cc(F)cc(-c3c(Cl)cccc3Cl)c2O1 [Compound I-86]" endpoint_result=80
compound="CNCC1COc2cccc(-c3ccccc3F)c2O1 (stereo not shown) [Compound I-18]" endpoint_result=50
compound="Cc1cccc(C)c1-c1cc(Cl)cc2c1O[C@@H](CN)CO2 [Compound I-69]" endpoint_result=60

API: the following record is the query input.
Req: Which Emax is listed for CNCC1Oc2cc(F)cc(-c3ccccc3Cl)c2O1 (stereo not shown) [Compound I-87] ?
Resp: 80

* * *

Counter-ions that a name gives are not always drawn.
quantity: melting point

Previously resolved entries follow.
compound="NCC1Oc2cc(Cl)cc(-c3cc(Cl)ccc3Cl)c2O1 (stereo not shown) (as salt: hydrochloride) [Compound I-98]" endpoint_result="246 to 248 °C"
compound="Clc1ccc(-c2cccc3c2OC(CNCC2CC2)CO3)c(Cl)c1 (stereo not shown) (as salt: fumarate) [Compound I-42]" endpoint_result="155 to 156 °C"
compound="NC[C@H]1COc2cc(Cl)cc(-c3ccc(Cl)cc3Cl)c2O1 (as salt: hydrochloride) [Compound I-64]" endpoint_result="140 °C"

API: the following record is the query input.
Req: Which melting point is listed for C[C@]1(CN)COc2cccc(-c3ccccc3)c2O1 (as salt: fumarate) [Compound I-48] ?
Resp: 130 to 133 °C

* * *

Target: human 5-HT2C receptor (Homo sapiens, UniProt P28335)
Test: 5-HT2C receptor-stimulated calcium mobilization (FLIPR) in CHO cells
Type: cell-based
Details: read-out: 5-HT2C Function EC50
pEC50: −log10 of the molar value.
Here, each record is paired with measured pEC50 data.

compound=NC[C@H]1COc2cc(Cl)cc(-c3ccccc3Cl)c2O1 endpoint_result="> 7.00"
compound="CCCNCC1COc2cccc(-c3ccc(Cl)cc3Cl)c2O1 (centres unmarked)" endpoint_result="< 6.30"
compound="NCC1COc2cccc(-c3ccccc3F)c2O1 (centres unmarked)" endpoint_result="> 7.00"
compound="COc1cccc(-c2cccc3c2OC(CN)CO3)c1OC (centres unmarked)" endpoint_result="> 7.00"

API: the following record is the query input.
Req: Which pEC50 is listed for CNCC1COc2cccc(-c3ccccc3C(F)(F)F)c2O1 (centres unmarked) ?
Resp: < 6.30

* * *

Here, each record is paired with measured EC50 data.
Target: human 5-HT2C receptor (Homo sapiens)
Assay: 5-HT2C receptor-stimulated calcium mobilization (FLIPR) in CHO cells
Format: cell-based
Settings: read-out: 5-HT2C Function EC50

Previously resolved entries follow.
compound="Cc1ccccc1-c1cc(Cl)cc2c1O[C@@H](CN)CO2 [Compound I-60]" tested_system="human 5-HT2C receptor (Homo sapiens)" quantity=EC50 endpoint_result="100 to 500 nM"
compound="NC[C@H]1COc2cc(Cl)cc(-c3ccc(Cl)cc3Cl)c2O1 [Compound I-64]" tested_system="human 5-HT2C receptor (Homo sapiens)" quantity=EC50 endpoint_result="100 to 500 nM"
compound="CNCC1COc2cccc(-c3cccc(OC)c3OC)c2O1 (stereo not shown) [Compound I-30]" tested_system="human 5-HT2C receptor (Homo sapiens)" quantity=EC50 endpoint_result="> 500 nM"
compound="CNCC1COc2cccc(-c3cccc(F)c3F)c2O1 (stereo not shown) [Compound I-27]" tested_system="human 5-HT2C receptor (Homo sapiens)" quantity=EC50 endpoint_result="100 to 500 nM"
compound="CNCC1COc2cccc(-c3ccccc3C)c2O1 (stereo not shown) [Compound I-17]" tested_system="human 5-HT2C receptor (Homo sapiens)" quantity=EC50 endpoint_result="< 100 nM"

Req: Which EC50 is listed for NCC1Oc2cc(F)cc(-c3ccccc3Cl)c2O1 (stereo not shown) [Compound I-84] ?
Resp: < 100 nM

Req: Which EC50 is listed for NCC1COc2cccc(-c3ccccc3C(F)(F)F)c2O1 (stereo not shown) [Compound I-4] ?
Resp: < 100 nM

Req: Which EC50 is listed for CNCC1COc2cccc(-c3ccc(F)cc3F)c2O1 (stereo not shown) [Compound I-28] ?
Resp: > 500 nM

Req: Which EC50 is listed for COc1ccccc1-c1cc(Cl)cc2c1O[C@@H](CN)CO2 [Compound I-61] ?
Resp: 100 to 500 nM

Req: Which EC50 is listed for C[C@]1(CN)COc2cccc(-c3ccccc3Cl)c2O1 [Compound I-49] ?
Resp: > 500 nM

* * *

Here, each record is paired with measured Emax data.
Target: human 5-HT2C receptor (Homo sapiens)
Experiment: 5-HT2C receptor-stimulated calcium mobilization (FLIPR) in CHO cells
Format: cell-based
Conditions: CHO; read-out: 5-HT2C Function EMax (%)
Report as a plain number; the unit % is understood.

Previously resolved entries follow.
compound="CN(C)CC1COc2cccc(-c3ccccc3Cl)c2O1 (stereo not drawn)" endpoint_result=30
compound="CCNCC1COc2cccc(-c3ccc(Cl)cc3Cl)c2O1 (stereo not drawn)" endpoint_result=30

Req: Which Emax is listed for COc1ccc(Cl)cc1-c1cccc2c1OC(CN)CO2 (stereo not drawn) ?
Resp: 60

* * *

Here, each record is paired with measured Emax data.
Target: human 5-HT2C receptor (Homo sapiens, UniProt P28335)
Sequence (P28335 33-458): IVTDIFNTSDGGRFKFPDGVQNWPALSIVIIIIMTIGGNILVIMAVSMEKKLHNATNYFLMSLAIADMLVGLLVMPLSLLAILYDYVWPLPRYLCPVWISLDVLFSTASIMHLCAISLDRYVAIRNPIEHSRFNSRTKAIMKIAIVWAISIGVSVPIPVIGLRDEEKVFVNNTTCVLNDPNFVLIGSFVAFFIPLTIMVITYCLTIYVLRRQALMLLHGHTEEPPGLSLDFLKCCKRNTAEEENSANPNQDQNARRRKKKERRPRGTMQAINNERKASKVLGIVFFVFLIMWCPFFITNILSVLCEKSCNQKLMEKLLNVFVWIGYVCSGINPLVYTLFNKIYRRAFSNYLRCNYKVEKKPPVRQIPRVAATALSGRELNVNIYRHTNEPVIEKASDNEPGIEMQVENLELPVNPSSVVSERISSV
Experiment: 5-HT2C receptor-stimulated calcium mobilization (FLIPR) in CHO cells
Assay type: cell-based
Details: CHO; read-out: 5-HT2C Function EMax (%)
Report as a plain number; the unit % is understood.

compound="CNCC1COc2cccc(-c3cccc(Cl)c3Cl)c2O1 (centres unmarked) [Compound I-22]" quantity=Emax endpoint_result=40
compound="NC[C@H]1COc2cccc(-c3c(Cl)cccc3Cl)c2O1 [Compound I-46]" quantity=Emax endpoint_result=50

Req: Which Emax is listed for Cc1cccc(-c2cccc3c2OC(CN)CO3)c1C (centres unmarked) [Compound I-10] ?
Resp: 50

Req: Which Emax is listed for CN(C)CC1COc2cccc(-c3ccc(Cl)cc3Cl)c2O1 (centres unmarked) [Compound I-39] ?
Resp: 20

Req: Which Emax is listed for C[C@]1(CN)COc2cccc(-c3ccccc3Cl)c2O1 [Compound I-49] ?
Resp: 70

# credit: patent US20060241172A1
